- Tested on: CCRF-CEM
- protocol: Antitumor activity against human CCRF-CEM cells assessed as growth inhibition after 48 hrs
- Type: functional
- measurement.conditions: read-out: ID50 (the source's name)
Starred links: 1 amine or outer side, 2 acyl side, 3 side chain; linkers in the order of their positions; H or OH if unused. Positions of bridges follow the written chain, without caps; N, C: chain ends. Non-standard residues stand in square brackets, D forms with d. Residues, ends and D or L forms follow the SMILES beside them. Chains are numbered I, II in the order given. Actinocin(1to9) = Cc1c2oc3c(C)ccc(C(=O)[*:2])c3nc-2c(C(=O)[*:1])c(N)c1=O; NMeV = CN[C@H](C(=O)O)C(C)C; Sar = CNCC(=O)O
reported.property: IC50 (µg/mL)
Return type: number; implicit unit µg/mL.

// worked examples, IC50 included
Cc1ccc(C(=O)N[C@@H]2C(=O)N[C@H](C(C)C)C(=O)N3CCC[C@H]3C(=O)N(C)CC(=O)N(C)[C@@H](C(C)C)C(=O)O[C@@H]2C)c2c1Oc1c(c(C(=O)N[C@@H]3C(=O)N[C@H](C(C)C)C(=O)N4CCC[C@H]4C(=O)N(C)CC(=O)N(C)[C@@H](C(C)C)C(=O)O[C@@H]3C)c3nc(CCC(=O)O)c(=O)oc3c1C)N2    0.028
Cc1ccc(C(=O)N[C@@H]2C(=O)N[C@H](C(C)C)C(=O)N3CCC[C@H]3C(=O)N(C)CC(=O)N(C)[C@@H](C(C)C)C(=O)O[C@@H]2C)c2c1Oc1c(c(C(=O)N[C@@H]3C(=O)N[C@H](C(C)C)C(=O)N4CCC[C@H]4C(=O)N(C)CC(=O)N(C)[C@@H](C(C)C)C(=O)O[C@@H]3C)c3ncc(=O)oc3c1C)N2    0.024

Next molecule, IC50 to be filled in.
[Q] State the recorded IC50 for this entry: Cc1c2oc3c(C)ccc(C(=O)N[C@@H]4C(=O)N[C@H](C(C)C)C(=O)N5CCC[C@H]5C(=O)N(C)CC(=O)N(C)[C@@H](C(C)C)C(=O)O[C@@H]4C)c3nc-2c(C(=O)N[C@@H]2C(=O)N[C@H](C(C)C)C(=O)N3CCC[C@H]3C(=O)N(C)CC(=O)N(C)[C@@H](C(C)C)C(=O)O[C@@H]2C)c(N)c1=O [DACTINOMYCIN] (I: T[dV]P[Sar][NMeV] / II: T[dV]P[Sar][NMeV]; ester I:1-I:C, II:1-II:C; linker I:N-II:N via Actinocin(1to9))
[A] 0.01
